Target: Protein mono-ADP-ribosyltransferase PARP16 (Homo sapiens, UniProt Q8N5Y8)
Sequence (Q8N5Y8 whole entry): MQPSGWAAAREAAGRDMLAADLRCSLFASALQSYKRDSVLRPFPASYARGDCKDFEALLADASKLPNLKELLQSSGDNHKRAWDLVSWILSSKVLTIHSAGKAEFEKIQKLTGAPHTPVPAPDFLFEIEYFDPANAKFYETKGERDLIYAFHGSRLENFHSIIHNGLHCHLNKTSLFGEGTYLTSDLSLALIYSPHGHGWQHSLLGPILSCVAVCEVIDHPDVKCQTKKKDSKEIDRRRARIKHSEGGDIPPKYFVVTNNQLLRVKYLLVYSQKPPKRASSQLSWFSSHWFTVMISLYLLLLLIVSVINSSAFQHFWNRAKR
Literature pIC50 values, system: Protein mono-ADP-ribosyltransferase PARP16 (Homo sapiens, UniProt Q8N5Y8).
# pIC50 is unitless: minus log10 of the molar concentration; print number only

Please look up its pIC50: O=C1NC[C@@H](c2ccccc2)[C@@H](O)c2ccccc21
3.53

Ok, now NC(=O)c1cccc(NC(=O)/C=C\C(=O)N2CCN(c3ccc(F)cc3)CC2)c1
6.25

Query O=C1NC[C@@H](c2ccccn2)[C@@H](O)c2cc(Cl)c(Cl)cc21 next
6.44

What do we get for Cc1c(-c2ccnc(C(F)(F)F)c2)ccc2c1CCNC2=O ?
5.17
